Source listed as paper PMC7819943.

// values below are reported binding signal
testTarget: OsWOX13 (Oryza sativa, UniProt Q5QMM3 1-267)
Sequence: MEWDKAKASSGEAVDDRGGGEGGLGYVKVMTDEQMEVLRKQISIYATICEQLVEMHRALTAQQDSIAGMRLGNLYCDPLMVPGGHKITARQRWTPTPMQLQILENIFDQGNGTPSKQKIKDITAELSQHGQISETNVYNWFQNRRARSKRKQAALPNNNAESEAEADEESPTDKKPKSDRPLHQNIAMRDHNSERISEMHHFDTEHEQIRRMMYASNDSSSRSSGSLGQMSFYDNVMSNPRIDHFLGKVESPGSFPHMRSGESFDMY
measurementDescription: protein-binding microarray (RPBM); PBS, 2% BSA, 51.3 ng/ul salmon testes DNA, 50 uM zinc acetate, 200 nM TF, 25 C, 1 h; high values mean tight binding
conditionsUsed: protein: recombinant; tags: N-terminal polyhistidine and DsRed monomer fusion (pET32a); label: CyDye5-dUTP incorporated in the synthesized complementary strand; 3' TTTTT single-stranded linker to array surface; dsDNA, one strand shown
Over roughly 35,000 sequences, “fluorescence intensity (a.u.)” has its median near 10,000; the highest 2% begin near 52,000. The entries come from a sample that favours the highest values as a whole.

Previously resolved entries follow.
residues	binding signal
ATTGATTGTAGCCAAAATAAATTTTACTAAATTTTGCCAACGGAGTCACCTAGTGCAG	32500 fluorescence intensity (a.u.)
GCCTAAGATAATTGATAAGAGTGCTTAAAGTGTACAACCGCGGAGTCACCTAGTGCAG	37500 fluorescence intensity (a.u.)
CGCGCCAATCATCTCCCGCTCCCTCTTATCCTCCCCTCTCCGGAGTCACCTAGTGCAG	14100 fluorescence intensity (a.u.)
CACTGATTTTGATAGTTGAGGGACCCGTTGTATTTGATTTCGGAGTCACCTAGTGCAG	21500 fluorescence intensity (a.u.)
CTTACGTGTAAATTGAAATTACATTGTAATTTACATTTGACGGAGTCACCTAGTGCAG	34200 fluorescence intensity (a.u.)
TTCCGGACGTGTGATTGCGATGAGACGTGTTGCAATATCCCGGAGTCACCTAGTGCAG	7260 fluorescence intensity (a.u.)
AGGATCAAAATTGCATGATTTTGTATAGTTTAGGGATGAACGGAGTCACCTAGTGCAG	3210 fluorescence intensity (a.u.)
TGATTTCATGATTGATAGCTACATATCTTAGTTTCACACCCGGAGTCACCTAGTGCAG	40200 fluorescence intensity (a.u.)

Attention now turns to another entry.
Problem: Query for OsWOX13 (Oryza sativa, UniProt Q5QMM3 1-267): what binding signal does the record show for `GCTAAATTCCTATCAAATTCAAGTTTAACACATTACTGCGCGGAGTCACCTAGTGCAG` ?
Solution: 13100 fluorescence intensity (a.u.)
